Sourced from paper PMC9482650

Target: T1, ARHGAP21, Q5T5U3
T1 sequence (Q5T5U3 45-169, limits assumed, looked up): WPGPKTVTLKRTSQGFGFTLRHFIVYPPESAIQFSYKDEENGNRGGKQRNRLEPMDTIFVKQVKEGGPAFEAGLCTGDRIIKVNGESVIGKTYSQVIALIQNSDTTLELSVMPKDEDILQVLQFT
Assay: holdup assay
Set-up: key: below the threshold = too weak to quantify, mostly under pKd 3.1 to 4
Conditions: plain residues with an end cap or a label only (N-terminal biotin on a linker: ado-ado)
Recorded endpoint: pKd

Look over these answered cases.
INSERT INTO assay_data (binder, result) VALUES
  ('QLKSGRDSTV [TMEM178A, Q8NBL3]', 4),
  ('EAVTVESTSL [SLC22A11, Q9NSA0]', 4.12);

Query string: Need pKd of TNSKQGETTV [FZD1, Q9UP38] , thanks.
Result string: 3.93
